molecular target: T1, cyno FcRn/b2M (cyno, UniProt Q8SPV9 24-297; Q8SPW0 21-119, biotinylated); test: SPR off-rate; pH 7.4 vs pH 6.0;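 note: surface plasmon resonance with diluted periplasmic extracts flowed over ligand surfaces, 120 s association and 600–3600 s dissociation at 25 °C, running buffer containing 150 mM NaCl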
T1 construct: bought recombinant biotinylated protein (Immunitrack ITF05 or ACRO FCM-C82W5); also called cFcRn; cFcRn/cb2M
T1 sequence (Q8SPV9 24-297 limits assumed, chain 1 of 2): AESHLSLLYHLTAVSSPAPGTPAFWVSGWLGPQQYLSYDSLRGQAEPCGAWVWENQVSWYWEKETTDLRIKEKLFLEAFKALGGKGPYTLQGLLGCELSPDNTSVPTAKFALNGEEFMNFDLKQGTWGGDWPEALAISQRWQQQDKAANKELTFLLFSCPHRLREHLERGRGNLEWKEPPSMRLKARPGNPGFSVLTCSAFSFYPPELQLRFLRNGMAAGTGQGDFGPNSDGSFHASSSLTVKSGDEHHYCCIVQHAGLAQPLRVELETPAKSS
T1 sequence (Q8SPW0 21-119 limits assumed, chain 2 of 2): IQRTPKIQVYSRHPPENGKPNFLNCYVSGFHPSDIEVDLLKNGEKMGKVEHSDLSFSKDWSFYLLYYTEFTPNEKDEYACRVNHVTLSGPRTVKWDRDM
Assay endpoint: kd ratio pH 7.4/6.0

Some entries whose results are on file:
| Binder | Test value |
| --- | --- |
| T0263018B11 T57V (VHH, name in Kabat numbering, FLAG3-His6 tagged) VHH: EVQLVESGGGVVQPGGSLRLSCAASGFTFSSYAMYWVRQAPGKGLEWVSAISSGGGSVDYADSVKGRFTISRDNSKNTLYLQMNSLRPEDTALYYCAADTLYTSLTWYSYWGQGTLVTVSS | 42 |
| T0263018B11 S56K (VHH, name in Kabat numbering, FLAG3-His6 tagged) VHH: EVQLVESGGGVVQPGGSLRLSCAASGFTFSSYAMYWVRQAPGKGLEWVSAISSGGGKTDYADSVKGRFTISRDNSKNTLYLQMNSLRPEDTALYYCAADTLYTSLTWYSYWGQGTLVTVSS | 25 |
| T0263018B11 S30G (VHH, name in Kabat numbering, FLAG3-His6 tagged) VHH: EVQLVESGGGVVQPGGSLRLSCAASGFTFGSYAMYWVRQAPGKGLEWVSAISSGGGSTDYADSVKGRFTISRDNSKNTLYLQMNSLRPEDTALYYCAADTLYTSLTWYSYWGQGTLVTVSS | 35 |
| T0263018B11 T57F (VHH, name in Kabat numbering, FLAG3-His6 tagged) VHH: EVQLVESGGGVVQPGGSLRLSCAASGFTFSSYAMYWVRQAPGKGLEWVSAISSGGGSFDYADSVKGRFTISRDNSKNTLYLQMNSLRPEDTALYYCAADTLYTSLTWYSYWGQGTLVTVSS | 43 |
| T0263018B11 T28I (VHH, name in Kabat numbering, FLAG3-His6 tagged) VHH: EVQLVESGGGVVQPGGSLRLSCAASGFIFSSYAMYWVRQAPGKGLEWVSAISSGGGSTDYADSVKGRFTISRDNSKNTLYLQMNSLRPEDTALYYCAADTLYTSLTWYSYWGQGTLVTVSS | 75 |

I: T0263018B11 T96W (VHH, name in Kabat numbering, FLAG3-His6 tagged) VHH: EVQLVESGGGVVQPGGSLRLSCAASGFTFSSYAMYWVRQAPGKGLEWVSAISSGGGSTDYADSVKGRFTISRDNSKNTLYLQMNSLRPEDTALYYCAADWLYTSLTWYSYWGQGTLVTVSS
II: T0263018B11 T28P (VHH, name in Kabat numbering, FLAG3-His6 tagged) VHH: EVQLVESGGGVVQPGGSLRLSCAASGFPFSSYAMYWVRQAPGKGLEWVSAISSGGGSTDYADSVKGRFTISRDNSKNTLYLQMNSLRPEDTALYYCAADTLYTSLTWYSYWGQGTLVTVSS
Query: // returns I or II , whichever has the lower kd ratio pH 7.4/6.0 Field: selected label. Fill in the label of the entry you choose.
Response: II
(II: 28, I: 54)

Values from patent US20240132624A1
